Source listed as ChEMBL document CHEMBL4842314.

SYSTEM_UNDER_TEST: UniProtKB P34972
EXPERIMENT_DESCRIPTION: Displacement of [3H]-CP55940 from human recombinant CB2 receptor expressed in CHO-K1 cell membrane at 1 uM measured after 3 hrs by scintillation spectrometry
Type: cell membranes
Recorded inhibition, one value per entry.
Numbers only here, please. The scale is %.

Some entries whose results are on file:
{"SMILES_ENTRY": "CCCCCc1cc(O)c2cc(Cc3ccncc3)c(=O)oc2c1", "OBSERVED_RESULT": -5}
{"SMILES_ENTRY": "CCCCCc1cc(OC)c2cc(Cc3ccncc3)c(=O)oc2c1", "OBSERVED_RESULT": 11}
{"SMILES_ENTRY": "CCCCC1(c2cc(OC)c3cc(CCC)c(=O)oc3c2)CCCC1", "OBSERVED_RESULT": 38}
{"SMILES_ENTRY": "CCCCC1(c2cc(OC)c3cc(Cc4ccccn4)c(=O)oc3c2)CCCC1", "OBSERVED_RESULT": 20}
{"SMILES_ENTRY": "CCCCC1(c2cc(OC)c3cc(Cc4ccncc4)c(=O)oc3c2)CCCC1", "OBSERVED_RESULT": 9}
{"SMILES_ENTRY": "CCCCC1(c2cc(OC)c3cc(CC)c(=O)oc3c2)CCCC1", "OBSERVED_RESULT": 0}

Looking up `CCCCC(C)(C)c1cc(O)c2cc(Cc3ccccc3O)c(=O)oc2c1` , I found its inhibition recorded as 37

# compound `CCCCC1(c2cc(OC)c3cc(C)c(=O)oc3c2)CCCC1` ; its inhibition = 1

For this compound ( `CCCCC1(c2cc(OC)c3cc(-c4ccccc4)c(=O)oc3c2)CCCC1` ), measured inhibition is -8

Summary for this compound, `CCCCc1cc2c(OC)cc(C3(CCCC)CCCC3)cc2oc1=O` : inhibition is -1

// inhibition lookup, compound = `CCCCC1(c2cc(OC)c3cc(Cc4ccccn4)c(=O)oc3c2)CCCCC1` , result: 12

---

SYSTEM_UNDER_TEST: Cannabinoid receptor 1 (Homo sapiens, UniProt P21554)
Sequence (P21554 whole entry): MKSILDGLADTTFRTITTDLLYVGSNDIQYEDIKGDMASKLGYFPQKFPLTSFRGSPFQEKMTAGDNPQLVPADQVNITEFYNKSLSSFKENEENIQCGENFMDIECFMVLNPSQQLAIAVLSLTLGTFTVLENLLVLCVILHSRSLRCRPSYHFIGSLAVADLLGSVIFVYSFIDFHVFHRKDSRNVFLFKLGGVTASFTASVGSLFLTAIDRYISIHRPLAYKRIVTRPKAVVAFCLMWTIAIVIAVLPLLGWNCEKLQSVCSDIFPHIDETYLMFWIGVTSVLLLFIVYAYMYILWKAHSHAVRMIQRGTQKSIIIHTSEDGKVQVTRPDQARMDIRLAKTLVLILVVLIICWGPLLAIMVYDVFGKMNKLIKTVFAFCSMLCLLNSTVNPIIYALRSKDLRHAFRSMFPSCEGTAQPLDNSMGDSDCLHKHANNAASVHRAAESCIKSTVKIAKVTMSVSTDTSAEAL
EXPERIMENT_DESCRIPTION: Displacement of [3H]-CP55940 from human recombinant CB1 receptor expressed in CHO-K1 cell membrane at 1 uM measured after 3 hrs by scintillation spectrometry
Type: cell membranes
EXPERIMENTAL_CONTEXT: filed as agonist
QUANTITY_NAME: inhibition

Example entries and their recorded answers appear below.
{"SMILES_ENTRY": "CCCCCc1cc(OC)c2cc(Cc3ccccn3)c(=O)oc2c1", "inhibition": "> 50%"}
{"SMILES_ENTRY": "CCCCC1(c2cc(O)c3cc(CCC)c(=O)oc3c2)CCCCC1", "inhibition": "> 50%"}
{"SMILES_ENTRY": "CCCCCCC(C)(C)c1cc(O)c2cc(Cc3ccccc3C)c(=O)oc2c1", "inhibition": "47%"}
{"SMILES_ENTRY": "CCCCCc1cc(OC)c2cc(Cc3cccnc3)c(=O)oc2c1", "inhibition": "> 50%"}
{"SMILES_ENTRY": "CCCCCCC(C)(C)c1cc(O)c2cc(Cc3ccccc3C(F)(F)F)c(=O)oc2c1", "inhibition": "49%"}

Now turn to the next compound.
response.value for `CCCCCCC(C)(C)c1cc(OC)c2cc(Cc3ccccc3)c(=O)oc2c1` (field: inhibition) = > 50%

---

SYSTEM_UNDER_TEST: Cannabinoid receptor 2 (Homo sapiens)
Sequence (P34972 whole entry): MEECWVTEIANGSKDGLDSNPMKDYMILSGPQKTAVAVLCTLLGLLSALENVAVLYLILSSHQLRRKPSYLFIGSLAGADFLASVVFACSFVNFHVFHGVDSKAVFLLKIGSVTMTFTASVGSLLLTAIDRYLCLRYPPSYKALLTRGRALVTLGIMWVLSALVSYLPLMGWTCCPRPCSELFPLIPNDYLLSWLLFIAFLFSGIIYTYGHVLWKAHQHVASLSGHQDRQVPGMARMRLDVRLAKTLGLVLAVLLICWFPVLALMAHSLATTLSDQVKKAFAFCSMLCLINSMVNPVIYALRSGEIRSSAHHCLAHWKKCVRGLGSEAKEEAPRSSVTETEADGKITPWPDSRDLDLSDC
EXPERIMENT_DESCRIPTION: Agonist activity at human recombinant CB2 receptor expressed in CHO-K1 cell membrane assessed as increase in GTPgammaS binding at 1 uM pretreated for 30 mins followed by [35S]GTPgammaS addition for 90 mins by [35S]GTP-gammaS binding assay relative to CP55940
Format: functional, cell membranes
EXPERIMENTAL_CONTEXT: filed as agonist, time 120.0 min
// reported Emax for each item listed
All answers are understood in %, so give the number only.

{"SMILES_ENTRY": "CCCCC1(c2cc(O)c3cc(Cc4cccnc4)c(=O)oc3c2)CCCC1", "QUANTITY_NAME": "Emax", "OBSERVED_RESULT": 82}
{"SMILES_ENTRY": "CCCCCc1cc(OC)c2cc(Cc3cccnc3)c(=O)oc2c1", "QUANTITY_NAME": "Emax", "OBSERVED_RESULT": 40}
{"SMILES_ENTRY": "CCCCc1cc2c(O)cc(C3(CCCC)CCCCC3)cc2oc1=O", "QUANTITY_NAME": "Emax", "OBSERVED_RESULT": 65}
{"SMILES_ENTRY": "CCCCC1(c2cc(O)c3cc(Cc4ccccn4)c(=O)oc3c2)CCCCC1", "QUANTITY_NAME": "Emax", "OBSERVED_RESULT": 68}
{"SMILES_ENTRY": "CCCCc1cc2c(O)cc(C3(CCCC)CCCC3)cc2oc1=O", "QUANTITY_NAME": "Emax", "OBSERVED_RESULT": 85}

Entry `CCCCC1(c2cc(O)c3cc(CC)c(=O)oc3c2)CCCC1` ; Emax = 87

The recorded Emax for entry `CCCCC1(c2cc(O)c3cc(CC)c(=O)oc3c2)CCCCC1` equals 65

Quick note, Emax for `CCCCC1(c2cc(O)c3cc(C)c(=O)oc3c2)CCCCC1` landed at 66

Lab book: Emax of `CCCCC1(c2cc(O)c3cc(CCC)c(=O)oc3c2)CCCCC1` noted as 62

Lookup result for `CCCCC1(c2cc(O)c3cc(CCC)c(=O)oc3c2)CCCC1` ; measured Emax: 91

---

SYSTEM_UNDER_TEST: UniProt P21554
EXPERIMENT_DESCRIPTION: Displacement of [3H]-CP55940 from human recombinant CB1 receptor expressed in CHO-K1 cell membrane at 1 uM measured after 3 hrs by scintillation spectrometry
Format: cell membranes
Decide using inhibition: a value greater than or equal to 20% is Yes, a smaller one is No.

# example entries with known answers
{"SMILES_ENTRY": "CCCCC1(c2cc(OC)c3cc(Cc4cccnc4)c(=O)oc3c2)CCCC1", "SYSTEM_UNDER_TEST": "UniProt P21554", "LABEL_VALUE": "Yes"}
{"SMILES_ENTRY": "CCCCC1(c2cc(OC)c3cc(CCC)c(=O)oc3c2)CCCCC1", "SYSTEM_UNDER_TEST": "UniProt P21554", "LABEL_VALUE": "No"}
{"SMILES_ENTRY": "CCCCC1(c2cc(O)c3cc(C)c(=O)oc3c2)CCCC1", "SYSTEM_UNDER_TEST": "UniProt P21554", "LABEL_VALUE": "No"}
{"SMILES_ENTRY": "CCCCCCC(C)(C)c1cc(OC)c2cc(Cc3ccccc3C(F)(F)F)c(=O)oc2c1", "SYSTEM_UNDER_TEST": "UniProt P21554", "LABEL_VALUE": "Yes"}
{"SMILES_ENTRY": "CCCCC1(c2cc(O)c3cc(Cc4ccncc4)c(=O)oc3c2)CCCCC1", "SYSTEM_UNDER_TEST": "UniProt P21554", "LABEL_VALUE": "No"}

Okay, next one:
Challenge: Hi team, for `CCCCC1(c2cc(OC)c3cc(CCC)c(=O)oc3c2)CCCC1` , is the recorded inhibition at or above 20%?
Response given: Yes

---

SYSTEM_UNDER_TEST: Cannabinoid receptor 2 (Homo sapiens)
EXPERIMENT_DESCRIPTION: Displacement of [3H]-CP55940 from human recombinant CB2 receptor expressed in CHO-K1 cell membrane at 1 uM measured after 3 hrs by scintillation spectrometry
Format: cell membranes
EXPERIMENTAL_CONTEXT: filed as agonist
QUANTITY_NAME: inhibition

{"SMILES_ENTRY": "CCCCCCC(C)(C)c1cc(O)c2cc(Cc3ccccc3O)c(=O)oc2c1", "OBSERVED_RESULT": "> 50%"}
{"SMILES_ENTRY": "CCCCC1(c2cc(OC)c3cc(Cc4cccnc4)c(=O)oc3c2)CCCC1", "OBSERVED_RESULT": "40%"}
{"SMILES_ENTRY": "CCCCC1(c2cc(O)c3cc(Cc4ccncc4)c(=O)oc3c2)CCCCC1", "OBSERVED_RESULT": "46%"}
{"SMILES_ENTRY": "CCCCc1cc2c(O)cc(C3(CCCC)CCCCC3)cc2oc1=O", "OBSERVED_RESULT": "> 50%"}
{"SMILES_ENTRY": "CCCCC1(c2cc(O)c3cc(C)c(=O)oc3c2)CCCCC1", "OBSERVED_RESULT": "> 50%"}

// inhibition value for `CCCCC1(c2cc(O)c3cc(CCC)c(=O)oc3c2)CCCC1` : > 50%

For this compound ( `CCCCCCC(C)(C)c1cc(O)c2cc(Cc3ccccc3)c(=O)oc2c1` ), measured inhibition is > 50%

Value of measured inhibition for the entry `CCCCC1(c2cc(O)c3cc(Cc4ccccn4)c(=O)oc3c2)CCCCC1` : > 50%

Briefly, inhibition measured for `CCCCC1(c2cc(O)c3cc(CC)c(=O)oc3c2)CCCC1` : > 50%

Kindly note the recorded inhibition for `CCCCCCC(C)(C)c1cc(O)c2cc(Cc3ccccc3C)c(=O)oc2c1` , which is > 50%

According to the records, this compound `CCCCC(C)(C)c1cc(OC)c2cc(Cc3ccccc3OC)c(=O)oc2c1` displays inhibition of > 50%
